Every entry's value here was drawn from paper PMC7098565.

# EXPERIMENT: Pharmacokinetics in plasma and tumor from melanoma-bearing mice (LC-MS/MS)
# Format: in vivo
# ASSAY_SETUP: male, C57BL/6NCrl, mouse, plasma, po, 60 mg/kg, single oral dose 60 mg/kg, 1h; single mice; read-out: Concentration in Plasma
MEASURE_NAME: concentration at 1 h

Request: Return concentration at 1 h (reported value) for this compound: `COc1nc(OCc2cccc(-c3ccccc3)c2C)ccc1CNCCNC(C)=O`
Response: 3.8 nM

---

# EXPERIMENT: Pharmacokinetics in plasma and tumor from melanoma-bearing mice (LC-MS/MS)
# Assay type: in vivo
# ASSAY_SETUP: male, C57BL/6NCrl, mouse, plasma, po, 60 mg/kg, single oral dose 60 mg/kg, 3h, n = 5; read-out: average concentration in plasma
MEASURE_NAME: concentration at 3 h

Request: Hello, please tell me recorded concentration at 3 h for this one: COc1nc(OCc2cccc(-c3ccccc3)c2C)ccc1CNCCNC(C)=O [PCC0208025]
Response: ~3.94 nM

---

# System: Human CD3+ cells
# EXPERIMENT: Cytotoxicity to human CD3+ cells, CellTiter-Glo (CTG) assay
# Format: cell-based
# ASSAY_SETUP: 72 h, aCD3/aCD28 1 μg/mL, mean ± S.D (n = 3)
MEASURE_NAME: pIC50
# log scale: pIC50 equals minus log10 of the concentration in mol/L

Request: Look up pIC50 of `COc1nc(OCc2cccc(-c3ccccc3)c2C)ccc1CNCCNC(C)=O` and report it.
Response: 4.99

---

# EXPERIMENT: Pharmacokinetics in plasma and tumor from melanoma-bearing mice (LC-MS/MS)
# Type: in vivo
# ASSAY_SETUP: male, C57BL/6NCrl, mouse, plasma, po, 60 mg/kg, single oral dose 60 mg/kg, 3h; single mice; read-out: Concentration in Plasma
MEASURE_NAME: concentration at 3 h

Request: Using the record for `COc1nc(OCc2cccc(-c3ccccc3)c2C)ccc1CNCCNC(C)=O` , state its measured concentration at 3 h.
Response: 4.16 nM
